# STUDY TARGET: NR1-1a/NR2B receptors (Homo sapiens, UniProt Q05586+Q13224)
# Sequence (Q13224 27-1484, other chains not shown): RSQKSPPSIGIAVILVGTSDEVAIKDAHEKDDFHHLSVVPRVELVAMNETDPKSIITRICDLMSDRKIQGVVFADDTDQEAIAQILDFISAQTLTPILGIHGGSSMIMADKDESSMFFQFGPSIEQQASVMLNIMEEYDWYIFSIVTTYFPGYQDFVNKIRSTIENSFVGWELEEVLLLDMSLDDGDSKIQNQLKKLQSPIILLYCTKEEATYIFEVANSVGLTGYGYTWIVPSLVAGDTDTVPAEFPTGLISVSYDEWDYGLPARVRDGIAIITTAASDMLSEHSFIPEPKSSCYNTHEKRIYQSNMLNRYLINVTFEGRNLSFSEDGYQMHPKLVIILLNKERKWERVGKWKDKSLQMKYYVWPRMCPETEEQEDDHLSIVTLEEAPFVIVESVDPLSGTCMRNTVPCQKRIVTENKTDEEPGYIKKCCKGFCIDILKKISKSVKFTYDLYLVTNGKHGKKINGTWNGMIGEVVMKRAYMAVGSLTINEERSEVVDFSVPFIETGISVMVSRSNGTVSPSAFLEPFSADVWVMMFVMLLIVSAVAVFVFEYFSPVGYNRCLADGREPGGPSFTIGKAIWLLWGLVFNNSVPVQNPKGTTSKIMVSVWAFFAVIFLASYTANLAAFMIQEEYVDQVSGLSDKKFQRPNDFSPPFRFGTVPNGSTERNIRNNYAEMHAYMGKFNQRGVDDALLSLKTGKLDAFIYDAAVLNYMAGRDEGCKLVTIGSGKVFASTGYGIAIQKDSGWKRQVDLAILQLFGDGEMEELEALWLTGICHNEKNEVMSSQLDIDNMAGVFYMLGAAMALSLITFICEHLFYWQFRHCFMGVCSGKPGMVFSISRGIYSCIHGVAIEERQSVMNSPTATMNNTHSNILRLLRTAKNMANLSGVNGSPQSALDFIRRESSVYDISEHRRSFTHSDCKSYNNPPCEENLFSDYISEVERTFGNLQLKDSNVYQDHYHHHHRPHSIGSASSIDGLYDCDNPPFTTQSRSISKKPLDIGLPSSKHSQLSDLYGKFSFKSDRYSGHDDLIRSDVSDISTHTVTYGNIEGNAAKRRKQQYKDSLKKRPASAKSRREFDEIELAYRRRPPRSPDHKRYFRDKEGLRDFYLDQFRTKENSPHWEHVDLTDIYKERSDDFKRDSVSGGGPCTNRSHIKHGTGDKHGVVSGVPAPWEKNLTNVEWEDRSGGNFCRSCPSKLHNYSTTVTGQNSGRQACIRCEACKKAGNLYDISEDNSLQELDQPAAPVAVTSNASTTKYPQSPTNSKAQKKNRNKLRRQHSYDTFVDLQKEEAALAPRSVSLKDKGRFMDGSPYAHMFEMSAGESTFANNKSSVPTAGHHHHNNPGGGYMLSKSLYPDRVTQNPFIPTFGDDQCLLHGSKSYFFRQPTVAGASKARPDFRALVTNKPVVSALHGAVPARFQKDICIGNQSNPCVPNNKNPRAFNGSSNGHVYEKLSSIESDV
# PROTOCOL DESCRIPTION: Two electrode voltage clamp of Xenopus oocytes expressing NR1-1a and NR2B NMDA receptor subunits; inhibition of glutamate/glycine current at pH 6.9 and 7.6
# Type: cell-based
Binary call on IC50 with cut-off 10000 nM: strictly below means yes, and equality or higher means no.

Problem: Does the reported IC50 of CS(=O)(=O)Nc1ccccc1OC[C@@H](O)CNCCc1ccc(Cl)c(Cl)c1 [93-32 (S)] stay below 10000 nM?
Result: no

Problem: Does the reported IC50 of O=S(=O)(Nc1ccc(OCC(O)CNCCc2ccc(Cl)c(Cl)c2)cc1)c1ccccc1 [93-29 (S)] stay below 10000 nM?
Result: yes

Problem: Does the reported IC50 of CS(=O)(=O)Nc1cccc(OC[C@@H](O)CNCCc2ccc(Cl)c(Cl)c2)c1 [93-9 (S)] stay below 10000 nM?
Result: yes

Problem: Does the reported IC50 of CN(c1ccc(OC[C@@H](O)CNCCc2ccc(Cl)c(Cl)c2)cc1)S(C)(=O)=O [93-7 (S)] stay below 10000 nM?
Result: yes

Problem: Does the reported IC50 of O=[N+]([O-])c1ccc(OC[C@@H](O)CNCCc2ccc(Cl)c(Cl)c2)cc1 [93-10 (S)] stay below 10000 nM?
Result: no

Values compiled from patent US7375136B2.
